The reported numbers originate from PubChem BioAssay (EPA / NIEHS).

Read-out: Apoptosis regulator Bcl-2 (Homo sapiens) (UniProt P10415)
Sequence (P10415 whole entry, looked up): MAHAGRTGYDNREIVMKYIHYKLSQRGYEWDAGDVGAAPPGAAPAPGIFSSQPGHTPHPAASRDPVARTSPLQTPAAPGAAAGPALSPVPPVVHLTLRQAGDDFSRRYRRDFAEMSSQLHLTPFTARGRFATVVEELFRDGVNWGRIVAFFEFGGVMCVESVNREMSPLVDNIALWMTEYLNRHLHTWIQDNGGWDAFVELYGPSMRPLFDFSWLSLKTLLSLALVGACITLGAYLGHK
Assay: LTEA_HepaRG_BCL2: Life Technologies and Expression Analysis (LTEA) Assay for Bcl-2 gene using HepaRG (AID 2283475);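 note: BCL2 transcript by TaqMan qRT-PCR normalised to ACTB GAPDH and POLR2A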
Details: mRNA level, 48 h; actives raise or lower the signal
Active and inactive are the calls of the source. Rule for the calls: active = hit-call score of the fitted dose curve at least 0.9, where 1 is the maximum; inactive = score below 0.9.
Possible outcomes: active, inactive

INSERT INTO measurements (molecule, class_label) VALUES
  ('CC1=C2C[C@H]3[C@@H](CC=C4C[C@@H](O)CC[C@@]43C)[C@@H]2CC[C@]12O[C@@H]1C[C@H](C)CN[C@H]1[C@H]2C', 'inactive'),
  ('ClC1=C(Cl)[C@]2(Cl)[C@@H]3[C@@H]4C[C@@H]([C@H]5O[C@@H]45)[C@@H]3[C@@]1(Cl)C2(Cl)Cl', 'active'),
  ('ClC1=C(Cl)[C@]2(Cl)[C@@H]3[C@@H](Cl)[C@H]4O[C@H]4[C@@H]3C1(Cl)C2(Cl)Cl', 'inactive'),
  ('CC(C)C(=O)OCC(C)(C)C(OC(=O)C(C)C)C(C)C (centres undefined)', 'inactive'),
  ('CC(c1ccc(O)cc1)(c1ccc(O)cc1)c1ccc(O)cc1', 'inactive'),
  ('O=C(O)C(F)(F)C(F)(F)C(F)(F)C(F)(F)C(F)(F)C(F)(F)C(F)(F)C(F)(F)F', 'active'),
  ('C[C@]12CCC(=O)C=C1CC[C@@H]1[C@@H]2CC[C@@]2(C)[C@H]1CC[C@]2(C)O', 'active'),
  ('O=S(=O)(O)C(F)(F)C(F)(F)C(F)(F)C(F)(F)C(F)(F)C(F)(F)F', 'inactive'),
  ('CCC(C)(CC)c1cc(NC(=O)c2c(OC)cccc2OC)on1', 'inactive');

###

Assay: ACEA_ER_AUC_viability: ACEA Biosciences xCELLigence Real-Time Cell Analysis on Estrogen Receptor Agonism for Viability (AID 2283782);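 note: continuous compound exposure with impedance area under curve over 80 h; hit means loss of impedance signal meaning reduced cell growth or viability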
Results filed as inconclusive are left out. The source made the active and inactive calls. Rule for the calls: active = hit-call score of the fitted dose curve at least 0.9, where 1 is the maximum; inconclusive = response in the unintended direction; inactive = score below 0.9.
Possible outcomes: active, inactive

INSERT INTO measurements (chem_smiles, class_label) VALUES
  ('O=S(=O)(O)C(F)(F)C(F)(F)C(F)(F)C(F)(F)C(F)(F)C(F)(F)F', 'inactive'),
  ('O=C(NC(=O)c1cc(F)c(F)cc1Cl)Nc1cc(F)ccc1N1CCC(C(=O)O)CC1', 'inactive'),
  ('CCOC(=O)C(O)(c1ccc(Cl)cc1)c1ccc(Cl)cc1', 'active'),
  ('Cc1ccccc1[N+](=O)[O-]', 'inactive'),
  ('OCC(O)CO', 'inactive'),
  ('CCCCCCOC(=O)c1ccccc1C(=O)OCCCCCC', 'inactive'),
  ('Nc1ccc(-c2ccc(N)cc2)cc1', 'inactive'),
  ('CCOP(=S)(OCC)SCSC(C)(C)C', 'active'),
  ('N#Cc1ccc(N(CC(N)=O)CC(F)(F)F)cc1C(F)(F)F', 'inactive'),
  ('CN(C)c1nc(=O)n(C2CCCCC2)c(=O)n1C', 'inactive'),
  ('ClC1=C(Cl)[C@]2(Cl)[C@@H]3[C@@H](Cl)[C@H]4O[C@H]4[C@@H]3C1(Cl)C2(Cl)Cl', 'active');

###

Read-out: Cytochrome P450 (CYP2B6), CYP2B6 (gene 1555)
Assay: LTEA_HepaRG_CYP2B6: Life Technologies and Expression Analysis (LTEA) Assay for Cytochrome P450 (CYP2B6) using HepaRG (AID 2283481)
Conditions: mRNA level, 48 h; actives raise or lower the signal
Calls of active or inactive are those of the source. The calls were made as follows: active = hit-call score of the fitted dose curve at least 0.9, where 1 is the maximum; inactive = score below 0.9.
Metric name: outcome

INSERT INTO assay_data (chem_smiles, metric_name, endpoint_result) VALUES
  ('CCC(C)(c1ccc(O)cc1)c1ccc(O)cc1', 'outcome', 'inactive'),
  ('c1ccc(-c2ccccc2)cc1', 'outcome', 'inactive'),
  ('Cc1cc(O)ccc1Cl', 'outcome', 'inactive');

###

Read-out: CFLAR gene, CFLAR (gene 8837)
Assay: LTEA_HepaRG_CFLAR: Life Technologies and Expression Analysis (LTEA) Assay for CFLAR gene using HepaRG (AID 2283455)
Conditions: mRNA level, 48 h; actives raise or lower the signal
Active and inactive are the calls of the source. The calls were made as follows: active = hit-call score of the fitted dose curve at least 0.9, where 1 is the maximum; inactive = score below 0.9.
Possible outcomes: active, inactive

INSERT INTO assay_data (molecule, class_label) VALUES
  ('CCNc1nc(NC(C)C)nc(SC)n1', 'inactive'),
  ('C[C@]12CCC(=O)C=C1CC[C@@H]1[C@@H]2CC[C@@]2(C)[C@H]1CC[C@]2(C)O', 'inactive'),
  ('O=S(=O)(O)C(F)(F)C(F)(F)C(F)(F)C(F)(F)C(F)(F)C(F)(F)F', 'inactive'),
  ('ClC1=C(Cl)[C@]2(Cl)[C@@H]3[C@@H]4C[C@@H]([C@H]5O[C@@H]45)[C@@H]3[C@@]1(Cl)C2(Cl)Cl', 'inactive'),
  ('CCC(=O)O[C@H]1CC[C@H]2[C@@H]3CCC4=CC(=O)CC[C@]4(C)[C@H]3CC[C@]12C', 'inactive'),
  ('Cc1cc(-c2ccc(N)c(C)c2)ccc1N', 'inactive'),
  ('CCOCCOC(C)=O', 'inactive'),
  ('CCCCCCCCCc1ccc(O)cc1', 'inactive'),
  ('CCC(C)(CC)c1cc(NC(=O)c2c(OC)cccc2OC)on1', 'inactive'),
  ('CCOP(=S)(OCC)SCSC(C)(C)C', 'inactive'),
  ('CCCN(CCC)N=O', 'inactive'),
  ('C1CC2OC2CC1C1CO1 (centres undefined)', 'inactive'),
  ('C=CC(=O)NCNC(=O)C=C', 'inactive'),
  ('O=C(O)C(F)(F)C(F)(F)C(F)(F)C(F)(F)C(F)(F)F', 'inactive'),
  ('CN(C)CCO', 'inactive'),
  ('CCC(C)c1cc([N+](=O)[O-])cc([N+](=O)[O-])c1O (centres undefined)', 'active'),
  ('c1ccc(-c2ccccc2)cc1', 'inactive'),
  ('Cc1cccc([N+](=O)[O-])c1', 'inactive'),
  ('CC#Cc1cc(C)nc(Nc2ccccc2)n1', 'inactive');

###

Experiment: ATG_PPRE_CIS: Attagene CIS-FACTORIAL HepG2 Assay for human Peroxisome Proliferator-activated Response Element (PPRE) (AID 2282958)
Details: HepG2 PPRE cis-element reporter, Attagene transcription factor profiling; actives raise or lower the signal
The source made the active and inactive calls. Rule for the calls: active = hit-call score of the fitted dose curve at least 0.9, where 1 is the maximum; inactive = score below 0.9.
Metric name: AC50

INSERT INTO results (compound, endpoint_result) VALUES
  ('c1ccc(-c2ccccc2)cc1', 'inactive'),
  ('Cc1ccccc1O', 'inactive'),
  ('CN(C)CCO', 'inactive'),
  ('COS(=O)(=O)OC', 'inactive'),
  ('CCOP(=S)(OCC)SCSC(C)(C)C', 'inactive'),
  ('Cc1ccccc1[N+](=O)[O-]', 'inactive'),
  ('Cc1cccc(C)c1N', 'inactive'),
  ('CCCCCCOC(=O)c1ccccc1C(=O)OCCCCCC', '2.84 µM (active)'),
  ('CC#Cc1cc(C)nc(Nc2ccccc2)n1', 'inactive'),
  ('Cc1cccc([N+](=O)[O-])c1', 'inactive'),
  ('N#Cc1ccc(N(CC(N)=O)CC(F)(F)F)cc1C(F)(F)F', 'inactive'),
  ('O=C(N[C@H]1CN2CCC1CC2)c1cc2ccoc2cn1', 'inactive'),
  ('CO/C=C(/C(=O)OC)c1ccccc1COc1cccc(C(F)(F)F)n1', '37.3 µM (active)'),
  ('C1CC2OC2CC1C1CO1 (stereo not drawn)', 'inactive'),
  ('C[C@]12CCC(=O)C=C1CC[C@@H]1[C@@H]2CC[C@]2(C)C(=O)CC[C@@H]12', 'inactive'),
  ('CCC(C)c1cc([N+](=O)[O-])cc([N+](=O)[O-])c1O (stereo not drawn)', '16.5 µM (active)'),
  ('Clc1ccc(Cl)cc1', 'inactive'),
  ('c1cc2ccc3cccc4ccc(c1)c2c34', 'inactive'),
  ('Oc1ccc(Cl)cc1Cl', 'inactive'),
  ('Cc1cc(O)ccc1Cl', 'inactive'),
  ('Nn1cnnc1', 'inactive'),
  ('CCCCCCCCCc1ccc(O)cc1', 'inactive'),
  ('O=S(=O)(O)C(F)(F)C(F)(F)C(F)(F)C(F)(F)C(F)(F)C(F)(F)F', '97.7 µM (active) [middle of 4 runs]');

###

Read-out: CYP4A11 (gene 1579)
Assay: LTEA_HepaRG_CYP4A11: Life Technologies and Expression Analysis (LTEA) Assay for CYP4A11 using HepaRG (AID 2283486)
Conditions: mRNA level, 48 h; actives raise or lower the signal
Calls of active or inactive are those of the source. The calls were made as follows: active = hit-call score of the fitted dose curve at least 0.9, where 1 is the maximum; inactive = score below 0.9.
Metric name: AC50

INSERT INTO assay_data (compound, metric_name, endpoint_result) VALUES
  ('c1cc2ccc3cccc4ccc(c1)c2c34', 'AC50', 'inactive'),
  ('O=C(O)C(F)(F)C(F)(F)C(F)(F)C(F)(F)C(F)(F)F', 'AC50', '50 µM (active)'),
  ('Nc1ccc(-c2ccc(N)cc2)cc1', 'AC50', '33.1 µM (active)'),
  ('c1ccc(-c2ccccc2)cc1', 'AC50', 'inactive'),
  ('CO/C=C(/C(=O)OC)c1ccccc1COc1cccc(C(F)(F)F)n1', 'AC50', '3.9 µM (active)'),
  ('O=C(N[C@H]1CN2CCC1CC2)c1cc2ccoc2cn1', 'AC50', 'inactive'),
  ('Clc1ccc(C(Cl)(Cl)Cl)cc1', 'AC50', 'inactive'),
  ('CCCCCCCCCC[N+](C)(C)CCCCCCCCCC', 'AC50', '26.3 µM (active)'),
  ('O=C(NC(=O)c1c(F)cccc1F)Nc1cc(Cl)c(OC(F)(F)C(F)F)c(Cl)c1', 'AC50', 'inactive'),
  ('O=NN(c1ccccc1)c1ccccc1', 'AC50', '50 µM (active)'),
  ('Cc1cc(O)ccc1Cl', 'AC50', 'inactive'),
  ('CCC(C)c1cc([N+](=O)[O-])cc([N+](=O)[O-])c1O (stereo not given)', 'AC50', '2.78 µM (active)'),
  ('CCC(C)(CC)c1cc(NC(=O)c2c(OC)cccc2OC)on1', 'AC50', '26.2 µM (active)'),
  ('CC(C)(O)C(=O)Nc1ccc([N+](=O)[O-])c(C(F)(F)F)c1', 'AC50', '42 µM (active)'),
  ('CCOP(=S)(OCC)SCSC(C)(C)C', 'AC50', 'inactive'),
  ('ClC1=C(Cl)[C@]2(Cl)[C@@H]3[C@H]4C[C@H]([C@@H]5O[C@H]45)[C@@H]3[C@@]1(Cl)C2(Cl)Cl', 'AC50', '24.6 µM (active)'),
  ('ClC1=C(Cl)[C@]2(Cl)[C@@H]3[C@@H](Cl)[C@H]4O[C@H]4[C@@H]3C1(Cl)C2(Cl)Cl', 'AC50', '31.1 µM (active)'),
  ('Clc1ccc(Cl)cc1', 'AC50', 'inactive'),
  ('COS(=O)(=O)OC', 'AC50', 'inactive'),
  ('CCCN(CCC)N=O', 'AC50', 'inactive');
